- System: Streptococcus pyogenes
- procedure summary: Antibacterial activity against Streptococcus pyogenes ATCC 12344 assessed as bacterial growth inhibition incubated for 24 hrs by microdilution assay
- Assay type: functional
endpoint label: MIC (µg/mL)

[P] C\C(=C/C=C/C(C)=C1/C(=O)C[C@H]2[C@@]3(C)CCC(=O)C(C)(C)[C@@H]3CC[C@]12C)c1ccc(C)c(=O)o1
[Q] CC(=O)/C=C\C(=O)/C(C)=C/C=C/C(C)=C1/C(=O)C[C@H]2[C@@]3(C)CCC(=O)C(C)(C)[C@@H]3CC[C@]12C
[R] CC(=O)/C=C/C(=O)/C(C)=C/C=C/C(C)=C1\C(=O)C[C@H]2[C@@]3(C)CCC(=O)C(C)(C)[C@@H]3CC[C@]12C
Please give the order of these molecules when sorted by MIC, largest value leading. Record the ranking as a list of labels in the requested order.
P, R, Q
